# System: Crude diglycosidase
# Protocol Notes: Examination of temperature in the conversion into isoflavone aglycons by diglycosidase using soybean materials
# Assay type: biochemical, Penicillium multicolor IAM7153
# Design: concentration or dose not given beside the values
# Reported Conditions: 30° C., heat treatment of enzyme no, reaction time 0 h
# Method: Into 400 μL of 20 mM acetate buffer of pH 4.0 was suspended 50 mg of each of various soybean materials (roasted soy flour (manufactured by Fuji Shokuryo K.K.), soymilk (manufactured by Gitoh Shokuhin K.K.), defatted soybean (manufactured by Fuji Seiyu K.K.), concentrated soybean protein (manufactured by Fuji Seiyu K.K.)), whereby a substrate solution was prepared. Crude diglycosidase was diluted with 20 mM acetate buffer of pH 4.0 to be the glycosidase activity of 1.88 AU/mL. […]
Catalogue of compounds with associated Decomposition efficiency of daidzin family in defatted soybean
Report the value in % with no unit label.

O=c1c(-c2ccc(O)cc2)coc2cc(O[C@@H]3O[C@H](CO)[C@@H](O)[C@H](O)[C@H]3O)ccc12	42.2
O=c1c(-c2ccc(O)cc2)coc2cc(O)ccc12	14.5

# evaluate next
Briefly, Decomposition efficiency of daidzin family in defatted soybean measured for O=C(O)CC(=O)OC[C@H]1O[C@@H](Oc2ccc3c(=O)c(-c4ccc(O)cc4)coc3c2)[C@H](O)[C@@H](O)[C@@H]1O : 43.3
